# credit: the array DNA melting data of Ke et al. (doi:10.1101/2024.01.08.574731)

# assay summary: melting temperature; fluorescence melt of hairpins on a sequencing array, two-state fit, raised by 9.35 °C to match UV melts
# condition set: sodium 0.088 M
experimental readout: Tm

- entry sequence: "GGCCCTCCGAAAGGAGCC (((..(((....))))))"
  value observed: "38.4 °C"
- entry sequence: "GTTGTAGGAAACCACAAC (((((.(....).)))))"
  value observed: "39.9 °C"
- entry sequence: "GATCCGCGTACGGATC ((((((....))))))"
  value observed: "60.4 °C"

Q) Look up Tm for this sequence: GAGTATGGAAACGTACTC (((((.(....).)))))
A) 43.5 °C

Q) Could you do the same for GCACCCGAAAGGGCTTGC ((((((....)))..))) , please?
A) 46.6 °C

Q) Could you do the same for GTCTGCGAAAGCAGGAC ((((((....))).))) , please?
A) 57.8 °C

Q) Could you do the same for GTCAGGGGAAACCTTGGC (.((.((....)).)).) , please?
A) 32.7 °C

Q) Could you do the same for GTGGGACGAAAGTCTCAC (((.(((....))).))) , please?
A) 60 °C

Q) Could you do the same for GTGCCTGGAAACAAGCAC ((((.((....)).)))) , please?
A) 42.7 °C

Q) Could you do the same for GATCTAGACTTAGATC ((((((....)))))) , please?
A) 47 °C

###

# assay summary: melting temperature; fluorescence melt of hairpins on a sequencing array, two-state fit, raised by 9.35 °C to match UV melts
# condition set: sodium 0.088 M
So basically every entry gets a class from its Tm, ranges being zone 1 = under 40 °C, zone 2 = from 40 °C up to 50 °C, zone 3 = 50 °C and over

- entry sequence: "GATCTATGTCTAGATC ((((((....))))))"
  assigned category: "zone 1"
- entry sequence: "GCGCAGCGAAAGCGGGGC ((.(.((....)).).))"
  assigned category: "zone 3"
- entry sequence: "GCGAATGGTCGC ((((....))))"
  assigned category: "zone 2"
- entry sequence: "GTTTCGGGAAACCGAAAC (((((((....)))))))"
  assigned category: "zone 3"
- entry sequence: "GTCACTGGAAACAGTAAC ((.((((....)))).))"
  assigned category: "zone 1"
- entry sequence: "GATTAAGGAAACTTGATC (((.(((....))).)))"
  assigned category: "zone 1"
- entry sequence: "GCCTGGCGAAAGCTACGC ((.(.((....)).).))"
  assigned category: "zone 1"
- entry sequence: "GCGACCCATCGC ((((....))))"
  assigned category: "zone 3"
- entry sequence: "GCAGGCGAAAGCCACTGC ((((((....)))..)))"
  assigned category: "zone 2"
- entry sequence: "GATCCAGTATGGATC ((((((...))))))"
  assigned category: "zone 3"

Q) Please indicate the class for GGTTACACGAAAGTGACC (((..(((....)))))) based on its Tm.
A) zone 1

Q) Could you do the same for GATCTCTACCGAGATC ((((((....)))))) , please?
A) zone 3

Q) Could you do the same for GATCTAAAATTAGATC ((((((....)))))) , please?
A) zone 1

Q) Could you do the same for GATCACGCACGTGATC ((((((....)))))) , please?
A) zone 3

Q) Could you do the same for GCTTAGGCGAAAGCCAGC (((..(((....)))))) , please?
A) zone 2

Q) Could you do the same for GCGGCTACGAAAGTACGC (((..(((....)))))) , please?
A) zone 2
